- EXPERIMENT: Inhibition of Trypanosoma cruzi trans-sialidase
REPORTED_METRIC: pIC50
The meaning of pIC50 here: minus log10 of the concentration in molar units.

-- ask Specify pIC50 for CC(=O)N[C@H]1[C@H]([C@H](O)[C@H](O)CO)OC(Oc2ccc([N+](=O)[O-])cc2C(F)F)(C(=O)O)C[C@H]1O (stereo partly specified) and stop.
-- reply 3.22
